FYI, the data here is from the RNAGym collection of RNA variant scans (doi:10.7554/elife.80360).

B1: Hairpin Ribozyme (parent)
chain: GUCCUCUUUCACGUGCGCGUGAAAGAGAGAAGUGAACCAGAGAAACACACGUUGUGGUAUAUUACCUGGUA

Variants of: B1
Assay: self-cleavage, relative activity (ratio to wild type); higher = more cleavage; co-transcriptional
self-cleavage values by entry

{"mutation": "A31G C38A", "self-cleavage": 0.157}
{"mutation": "G1C U53G", "self-cleavage": 0.046}
{"mutation": "A26U G42A", "self-cleavage": 0.153}
{"mutation": "G21U U60G", "self-cleavage": 0.48}
{"mutation": "G19A G57C", "self-cleavage": 0.138}
{"mutation": "C3G A49U", "self-cleavage": 0.188}
{"mutation": "C4G A71G", "self-cleavage": 0.241}
{"mutation": "G15C G27A", "self-cleavage": 0.555}
{"mutation": "G32C A45U", "self-cleavage": 0.121}
{"mutation": "G54C U55A", "self-cleavage": 0.196}
{"mutation": "C18A G68C", "self-cleavage": 0.18}
